Tested on: SDMA in HCT116-MTAP-knockout cell line
assay.overview: Cell symmetric dimethylarginine (SDMA) test, In-cell Western, HCT116-MTAP-knockout
Assay type: cell-based
measurement.parameters: Homo sapiens, 96 h, IC50 score class, read-out: Cell 96 h SDMA Inhibition (HCT116-MTAP−/−) (score)
observation.type: IC50

{"chemical.smiles": "Cc1n[nH]c2cccc(-n3c(=O)c4nn(C)cc4c4ccc(Cl)cc43)c12", "val": "< 200 nM"}
{"chemical.smiles": "COc1cc(Cl)cc2c1c1cn(C)nc1c(=O)n2-c1cccnc1", "val": "200 to 1000 nM"}
{"chemical.smiles": "COc1ccc(-n2cc3c(n2)c(=O)n(-c2ccccc2)c2nc(C(F)(F)F)ccc32)cc1", "val": "< 200 nM"}
{"chemical.smiles": "Cn1cc2c(n1)c(=O)n(-c1cnccn1)c1nc(C(F)(F)F)ccc21", "val": "> 3000 nM"}
{"chemical.smiles": "Cn1cc2c(n1)c(=O)n(-c1cccc(O)c1)c1cc(C(F)(F)F)ccc21", "val": "< 200 nM"}
{"chemical.smiles": "CN1CCN(c2nccc(Cn3cc4c(n3)c(=O)n(-c3cccc5[nH]ncc35)c3cc(Cl)c(F)cc43)n2)CC1", "val": "< 200 nM"}
{"chemical.smiles": "O=c1c2nn(C3CC3)cc2c2ccc(C(F)(F)F)nc2n1-c1cccnc1", "val": "200 to 1000 nM"}
{"chemical.smiles": "Cc1ncccc1-n1c(=O)c2nn(C3CC3)cc2c2ccc(Cl)cc21", "val": "< 200 nM"}

###

assay.target: MAT2A recombinant protein (Homo sapiens, UniProt P31153)
Sequence (P31153 whole entry): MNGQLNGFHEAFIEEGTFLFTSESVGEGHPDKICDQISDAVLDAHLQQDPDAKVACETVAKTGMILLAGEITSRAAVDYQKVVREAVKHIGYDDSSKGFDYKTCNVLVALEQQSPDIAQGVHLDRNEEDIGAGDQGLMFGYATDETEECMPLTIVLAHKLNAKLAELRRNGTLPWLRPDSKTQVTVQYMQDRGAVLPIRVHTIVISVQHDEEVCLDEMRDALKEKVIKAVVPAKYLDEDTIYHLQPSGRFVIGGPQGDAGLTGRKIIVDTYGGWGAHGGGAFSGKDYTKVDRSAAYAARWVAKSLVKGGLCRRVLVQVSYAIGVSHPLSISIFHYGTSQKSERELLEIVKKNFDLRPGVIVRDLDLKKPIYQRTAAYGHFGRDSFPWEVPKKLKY
assay.overview: MAT2A inhibitory activity (malachite green colorimetric enzyme assay)
Format: biochemical
measurement.parameters: IC50 score class; read-out: MAT2A Inhibition (score)

{"chemical.smiles": "CCn1cc2c(n1)c(=O)n(-c1cnccc1C)c1cc(Cl)ccc21", "IC50": "< 100 nM"}
{"chemical.smiles": "Cn1cc2c(n1)c(=O)n(Cc1ccn[nH]1)c1cc(Cl)ccc21", "IC50": "< 100 nM"}
{"chemical.smiles": "COc1cc(Cl)cc2c1c1cn(C)nc1c(=O)n2-c1cccnc1", "IC50": "< 100 nM"}
{"chemical.smiles": "Cn1cc2c(n1)c(=O)n(-c1cccc3ccccc13)c1cc(Cl)c(F)cc21", "IC50": "< 100 nM"}
{"chemical.smiles": "Cn1ccc(Cn2ncc3c4ccc(Cl)cc4n(-c4cccnc4)c(=O)c32)n1", "IC50": "< 100 nM"}

###

Here, each record is paired with measured IC50 data.
assay.target: MAT2A recombinant protein (Homo sapiens, UniProt P31153)
assay.overview: MAT2A inhibitory activity (malachite green colorimetric enzyme assay)
Assay type: biochemical
measurement.parameters: IC50 score class; read-out: MAT2A Inhibition (score)
observation.type: IC50

{"molecule": "Cc1ncccc1-n1c(=O)c2[nH]ncc2c2ccc(C3CC3)nc21 [Compound B95]", "assay.target": "MAT2A recombinant protein (Homo sapiens, UniProt P31153)", "val": "< 0.1 µM"}
{"molecule": "Cc1ncccc1-n1c(=O)c2nn(C)cc2c2ccc(C3CC3)nc21 [Compound B75]", "assay.target": "MAT2A recombinant protein (Homo sapiens, UniProt P31153)", "val": "< 0.1 µM"}
{"molecule": "O=c1c2n[nH]cc2c2cc(F)c(Cl)cc2n1-c1cccnc1C1CC1 [Compound B425]", "assay.target": "MAT2A recombinant protein (Homo sapiens, UniProt P31153)", "val": "< 0.1 µM"}
{"molecule": "CCn1cc2c(n1)c(=O)n(-c1ccc(OC)cc1)c1cc(Cl)ccc21 [Compound B11]", "assay.target": "MAT2A recombinant protein (Homo sapiens, UniProt P31153)", "val": "> 1 µM"}
{"molecule": "COc1cc2c3cn(C)nc3c(=O)n(-c3cccnc3)c2cc1Cl [Compound B171]", "assay.target": "MAT2A recombinant protein (Homo sapiens, UniProt P31153)", "val": "< 0.1 µM"}

###

Test system: SDMA in human colon cancer cell line HCT116
assay.overview: Cell symmetric dimethylarginine (SDMA) test, In-cell Western, HCT116 (MTAP wild-type)
Type: cell-based
measurement.parameters: Homo sapiens, HCT-116, 96 h, read-out: Cell 96 h SDMA inhibition (HCT116-MTAP+/+)

{"molecule": "Cn1cc2c(n1)c(=O)n(-c1cccc3[nH]ncc13)c1nc(C(F)(F)F)c(C#N)cc21", "relation.qualifier": ">", "IC50, nM": 10000}
{"molecule": "CCn1cc2c(n1)c(=O)n(-c1cccc(O)c1)c1cc(Cl)ccc21", "relation.qualifier": "=", "IC50, nM": 2100}
{"molecule": "NC(=O)CC1N=c2c(c3ccc(Cl)cc3n(-c3cccnc3)c2=O)=N1 (centres unmarked)", "relation.qualifier": "=", "IC50, nM": 24.7}
{"molecule": "O=c1c2nn(C3CC3)cc2c2ccc(C(F)(F)F)nc2n1-c1cccc2[nH]ncc12", "relation.qualifier": "=", "IC50, nM": 3970}
{"molecule": "Cc1ncccc1-n1c(=O)c2nn(C)cc2c2ccc(OC(F)(F)F)cc21", "relation.qualifier": "=", "IC50, nM": 396}
{"molecule": "O=c1c2n[nH]cc2c2cc(F)c(Cl)cc2n1-c1cccc2[nH]ncc12", "relation.qualifier": "=", "IC50, nM": 687}
{"molecule": "Cn1cc2c(n1)c(=O)n(-c1cccnc1C(F)(F)F)c1cc(Cl)ccc21", "relation.qualifier": ">", "IC50, nM": 3000}
{"molecule": "Cn1cc2c(n1)c(=O)n(-c1cccnc1C(F)(F)F)c1nc(C(F)(F)F)ccc21", "relation.qualifier": ">", "IC50, nM": 3000}
{"molecule": "O=c1c2nn(C(F)F)cc2c2cc(F)c(C3CC3)nc2n1-c1cccnc1C1CC1", "relation.qualifier": ">", "IC50, nM": 10000}
{"molecule": "O=c1c2nn(C(F)F)cc2c2cc(F)c(Cl)cc2n1-c1cccnc1C1CC1 (single isomer, unassigned) [Compound B399]", "relation.qualifier": ">", "IC50, nM": 10000}
{"molecule": "Cn1cc2c(n1)c(=O)n(-c1cccnc1C1CC1)c1nc(C(F)(F)F)ccc21 (single isomer, unassigned) [Compound B213]", "relation.qualifier": "=", "IC50, nM": 206}
{"molecule": "O=c1c2nn(CC(F)F)cc2c2ccc(Cl)cc2n1-c1cccnc1", "relation.qualifier": "=", "IC50, nM": 4470}
{"molecule": "COc1ccc(-n2cc3c(n2)c(=O)n(-c2ccccc2)c2nc(C(F)(F)F)ccc32)cc1", "relation.qualifier": ">", "IC50, nM": 3000}
{"molecule": "Cn1cc2c(n1)c(=O)n(-c1ccccc1)c1nc(C(F)(F)F)ccc21", "relation.qualifier": "=", "IC50, nM": 858}
{"molecule": "Cn1cnc2c(=O)n(-c3cccnc3C(F)(F)F)c3cc(Cl)c(F)cc3c21", "relation.qualifier": ">", "IC50, nM": 10000}
{"molecule": "Cn1cc2c(n1)c(=O)n(-c1cccc3[nH]ncc13)c1cc(Cl)ccc21", "relation.qualifier": "=", "IC50, nM": 467}
{"molecule": "Cc1[nH]nc2c(=O)n(-c3cccnc3)c3nc(C(F)(F)F)ccc3c12", "relation.qualifier": "=", "IC50, nM": 433}

###

assay.overview: Pharmacokinetic test in rats (IV and PO)
Assay type: in vivo
measurement.parameters: rat, plasma; SD rats, PO 5 mg/kg
Here, each record is paired with measured AUC data.
observation.type: AUC (µM·h)

{"chemical.smiles": "Cn1cc2c(n1)c(=O)n(-c1cccc3[nH]ncc13)c1nc(C(F)(F)F)ccc21", "u": "µM·h", "val": 541}
{"chemical.smiles": "Cn1cc2c(n1)c(=O)n(-c1cccnc1C1CC1)c1cc(Cl)c(F)cc21", "u": "µM·h", "val": 68.9}
{"chemical.smiles": "O=c1c2n[nH]cc2c2cc(F)c(Cl)cc2n1-c1cccnc1C1CC1", "u": "µM·h", "val": 128}
{"chemical.smiles": "COc1ccc(Cn2cc3c(n2)c(=O)n(-c2cccnc2)c2cc(Cl)ccc32)cc1", "u": "µM·h", "val": 7.6}
{"chemical.smiles": "CCn1cc2c(n1)c(=O)n(-c1cccc(F)c1)c1cc(Cl)ccc21", "u": "µM·h", "val": 7.95}
{"chemical.smiles": "CCn1cc2c(n1)c(=O)n(-c1cccnc1)c1cc(Cl)ccc21", "u": "µM·h", "val": 26}
{"chemical.smiles": "Cn1cc2c(n1)c(=O)n(-c1cccnc1)c1cc(Cl)ccc21", "u": "µM·h", "val": 223}

###

Here, each record is paired with measured clearance data.
assay.overview: Pharmacokinetic test in mice (IV and PO)
Format: in vivo
measurement.parameters: mouse, plasma; BALB/c mice, IV 2 mg/kg

{"compound": "CCn1cc2c(n1)c(=O)n(-c1cccnc1)c1nc(C(F)(F)F)ccc21 [Compound B29]", "clearance [mL/min/kg]": 46.7}
{"compound": "Cn1cc2c(n1)c(=O)n(-c1cccc3[nH]ncc13)c1cc(Cl)ccc21 [Compound B60]", "clearance [mL/min/kg]": 0.667}
{"compound": "CCn1nc2c(=O)n(-c3cccnc3)c3cc(Cl)ccc3c2c1C [Compound B17]", "clearance [mL/min/kg]": 27.7}
{"compound": "O=c1c2nn(C(F)F)cc2c2ccc(C(F)(F)F)nc2n1-c1cccc2[nH]ncc12 [Compound B245]", "clearance [mL/min/kg]": 0.3}
{"compound": "Cn1cc2c(n1)c(=O)n(-c1cccc3[nH]ncc13)c1cc(Cl)c(F)cc21 [Compound B257]", "clearance [mL/min/kg]": 0.917}
{"compound": "Cc1c2c(nn1C)c(=O)n(-c1cccnc1)c1nc(C(F)(F)F)ccc21 [Compound B198]", "clearance [mL/min/kg]": 10.7}
{"compound": "Cn1cc2c(n1)c(=O)n(-c1cccnc1)c1nc(C(F)(F)F)ccc21 [Compound B72]", "clearance [mL/min/kg]": 12.8}
{"compound": "Cc1ncccc1-n1c(=O)c2nn(C)cc2c2ccc(C(F)(F)F)nc21 (single isomer, unassigned) [Compound B180]", "clearance [mL/min/kg]": 27.3}
